Value source: patent US20210388081A1

Molecular target: T1, FcRL6, overexpressed on 3T3 cells (UniProt Q6DN72 20-434, limits assumed)
T1 construct: whole, on cells
T1 sequence (looked up): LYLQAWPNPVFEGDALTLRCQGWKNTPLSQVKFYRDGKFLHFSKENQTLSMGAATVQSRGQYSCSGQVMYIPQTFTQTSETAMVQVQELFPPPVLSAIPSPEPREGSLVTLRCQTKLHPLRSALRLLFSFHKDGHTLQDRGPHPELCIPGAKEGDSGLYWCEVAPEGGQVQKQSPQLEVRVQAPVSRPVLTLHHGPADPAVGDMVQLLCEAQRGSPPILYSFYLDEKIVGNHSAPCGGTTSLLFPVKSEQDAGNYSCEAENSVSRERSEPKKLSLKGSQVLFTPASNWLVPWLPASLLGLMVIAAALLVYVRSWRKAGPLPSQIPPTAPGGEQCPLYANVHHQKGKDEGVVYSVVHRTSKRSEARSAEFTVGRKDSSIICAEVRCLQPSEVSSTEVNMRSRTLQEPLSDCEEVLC
Assay: phage clone on 3T3-FcRL6 cells
measure: binding result

ET200-009 (scFv, screened as phage clone; entry is VL-linker-VH-His tag-HA tag) scFv: QSVLTQPPSASGTPGQTVTISCSGSNSNIGSNYVYWYQQLPGTAPKLLIYRNNQRPSGVPDRFSGSKSGTSASLAISGLRSEDEADYYCAAWDDSLSAYVFGTGTKVTVLGSRGGGGSGGGGSGGGGSLEMAQVQLVQSGAEVKKPGASVKVSCKASGYTFTSYGISWVRQAPGQGLEWMGWISAYNGNTNYAQKLQGRVTMTTDTSTSTAYMELRSLRSDDTAVYYCARSSGNMVSWKDMWGQGTLVTVSSTSGQAGQHHHHHHGAYPYDVPDYAS	no binding
ET200-014 (scFv, screened as phage clone; entry is VL-linker-VH-His tag-HA tag) scFv: SYVLTQPPSVSVAPGKTARITCGGNNIGSKSVHWYQQKPGQAPVLVIYYDSDRPSGIPERFSGSNSGNTATLTISRVEAGDEADYYCQVWDSSSDHYVFGTGTKVTVLGSRGGGGSGGGGSGGGGSLEMAEVQLVETGGGLVQPGGSLRLSCAASGFTFSSYAMSWVRQAPGKGLEWVSAISGSDGSTYYADSVKGRFTISRDNSKNTLYLQMNSLRDEDTAVYYCARSHEANLVGDWWGQGTLVTVSSTSGQAGQHHHHHHGAYPYDVPDYAS	no binding
